Target: hGlyT-1b (Homo sapiens)
Sequence (P48067 1-652 isoform P48067-3): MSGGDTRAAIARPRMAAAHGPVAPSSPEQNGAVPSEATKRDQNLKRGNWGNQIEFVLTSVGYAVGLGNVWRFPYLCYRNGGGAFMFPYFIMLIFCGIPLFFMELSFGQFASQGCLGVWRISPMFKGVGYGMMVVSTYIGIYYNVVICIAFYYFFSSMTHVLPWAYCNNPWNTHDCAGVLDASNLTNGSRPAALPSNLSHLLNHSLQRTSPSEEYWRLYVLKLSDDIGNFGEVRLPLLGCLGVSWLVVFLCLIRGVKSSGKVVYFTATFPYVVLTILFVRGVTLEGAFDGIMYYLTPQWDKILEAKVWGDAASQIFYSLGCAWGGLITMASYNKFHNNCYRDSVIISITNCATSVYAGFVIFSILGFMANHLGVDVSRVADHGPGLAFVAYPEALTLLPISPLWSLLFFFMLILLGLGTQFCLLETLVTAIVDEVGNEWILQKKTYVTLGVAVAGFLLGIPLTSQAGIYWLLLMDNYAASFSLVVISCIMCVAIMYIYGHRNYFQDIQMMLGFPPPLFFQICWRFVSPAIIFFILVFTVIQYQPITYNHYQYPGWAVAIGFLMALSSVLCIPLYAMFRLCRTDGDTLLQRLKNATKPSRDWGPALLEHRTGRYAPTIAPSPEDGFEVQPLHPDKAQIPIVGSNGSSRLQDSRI
Experiment: Glycine uptake inhibition assay (hGlyT-1b), [3H]-glycine uptake in transfected CHO cells
test-readout: IC50 (µM)
Hi! Could you send only the number? It should be in µM, unit omitted.

Worked examples, 5 molecules total:
- COc1ccc(S(=O)(=O)N(c2cccc(OC)c2)C2CCN([C@@H]3CCCC[C@@]3(O)c3ccccc3)CC2)cc1 (racemic) [Example 123]: 0.095
- O=S(=O)(c1ccc(Cl)c(Cl)c1)N(c1ccccc1)C1CCN([C@@H]2CCCC[C@@H]2c2ccccc2)CC1 (racemic) [Example 1]: 0.048
- COc1ccc(S(=O)(=O)N(c2ccccc2)C2CCN([C@@H]3CCCC[C@@]3(O)c3cccnc3)CC2)cc1 (racemic) [Example 110]: 0.076
- COc1ccc(S(=O)(=O)N(c2ccc(F)cc2)C2CCN([C@@H]3CCCC[C@@]3(O)c3ccccc3)CC2)cc1 (racemic) [Example 112]: 0.061
- COc1ccc(S(=O)(=O)N(c2ccccc2)C2CCN([C@@H]3CCCC[C@@]3(O)c3ccccc3)CC2)cc1 (racemic) [Example 99]: 0.028

Now look at this one.
Query: Fill in the blank: the reported IC50 of COc1ccc(S(=O)(=O)N(c2ccc(F)cc2)C2CCN([C@@H]3CCCC[C@@]3(O)c3ccncc3)CC2)cc1 (racemic) [Example 115] is ____.
Response: 0.071

###

Listed here: items and their measured pIC50.
Molecular target: hGlyT-1b (Homo sapiens)
Sequence (P48067 1-652 isoform P48067-3): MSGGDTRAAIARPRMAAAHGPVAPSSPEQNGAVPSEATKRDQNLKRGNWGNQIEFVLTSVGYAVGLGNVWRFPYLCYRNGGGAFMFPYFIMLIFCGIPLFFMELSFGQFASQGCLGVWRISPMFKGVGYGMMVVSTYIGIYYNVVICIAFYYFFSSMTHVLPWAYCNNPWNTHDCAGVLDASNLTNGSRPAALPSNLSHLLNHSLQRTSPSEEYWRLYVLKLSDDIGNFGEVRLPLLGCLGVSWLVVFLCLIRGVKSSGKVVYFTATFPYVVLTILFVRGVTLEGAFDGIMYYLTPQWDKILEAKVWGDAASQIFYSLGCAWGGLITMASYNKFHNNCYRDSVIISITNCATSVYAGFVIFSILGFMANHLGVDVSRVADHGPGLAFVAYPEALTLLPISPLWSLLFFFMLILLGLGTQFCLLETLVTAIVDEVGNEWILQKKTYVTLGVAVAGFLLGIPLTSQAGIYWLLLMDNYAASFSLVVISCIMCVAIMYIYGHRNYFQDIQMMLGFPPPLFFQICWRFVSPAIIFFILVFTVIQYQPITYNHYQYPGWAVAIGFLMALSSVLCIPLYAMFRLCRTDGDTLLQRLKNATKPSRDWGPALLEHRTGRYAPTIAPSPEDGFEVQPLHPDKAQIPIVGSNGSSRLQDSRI
Assay: Glycine uptake inhibition assay (hGlyT-1b), [3H]-glycine uptake in transfected CHO cells
In textbook form, pIC50 equals minus log to base ten of the concentration in mol/L.

- COc1ccc(S(=O)(=O)N(c2cccc(C(F)(F)F)c2)C2CCN([C@@H]3CCCC[C@@]3(O)c3cccnc3)CC2)cc1 (racemic): 7.15
- Cc1ccc(S(=O)(=O)N(c2ccc(F)cc2)C2CCN([C@@H]3CCCC[C@@H]3c3ccccc3)CC2)cc1 (racemic): 7.00
- COc1ccc(S(=O)(=O)N(c2ccc(F)cc2)C2CCN([C@@H]3CCCC[C@@]3(O)c3ccc(F)cc3)CC2)cc1 (racemic): 7.18
- COc1ccc(S(=O)(=O)N(c2cccc(C(F)(F)F)c2)C2CCN([C@@H]3CCCC[C@@]3(O)c3ccncc3)CC2)cc1 (racemic): 7.04
- COc1ccc(S(=O)(=O)N(c2ccc(F)cc2)C2CCN([C@@H]3CCCC[C@@H]3c3ccccc3)CC2)cc1 (racemic): 7.54
- COc1ccc(S(=O)(=O)N(c2ccccc2)C2CCN([C@@H]3CCCC[C@]3(O)c3ccccc3)CC2)cc1 (racemic): 7.17
- COc1ccc(S(=O)(=O)N(c2cccc(OC)c2)C2CCN([C@@H]3CCCC[C@@H]3c3ccccc3)CC2)cc1 (racemic): 7.03
- COc1ccc(S(=O)(=O)N(c2ccccc2)C2CCN([C@@H]3CCCC[C@@]3(O)c3ccncc3)CC2)cc1 (racemic): 7.14
- COc1ccc(S(=O)(=O)N(c2ccc(Cl)cc2)C2CCN([C@@H]3CCCC[C@@]3(O)c3cccnc3)CC2)cc1 (racemic): 7.08
- COc1ccc(S(=O)(=O)N(c2ccccc2)C2CCN([C@@H]3CCCC[C@@]3(O)c3ccccc3C)CC2)cc1 (racemic): 7.17

Query: Fill in the blank: the reported pIC50 of COc1ccc(S(=O)(=O)N(c2ccc(F)cc2)C2CCN([C@@H]3COCC[C@@]3(O)c3ccccc3)CC2)cc1 (racemic) is ____.
Response: 7.07

Query: Fill in the blank: the reported pIC50 of COc1ccc(S(=O)(=O)N(c2ccccc2)C2CCN([C@@H]3CCCC[C@@]3(O)c3ccc(Cl)cc3)CC2)cc1 (racemic) is ____.
Response: 7.08
